Molecular target: UniProt:P9WH43
Sequence (P9WH43 whole entry, looked up): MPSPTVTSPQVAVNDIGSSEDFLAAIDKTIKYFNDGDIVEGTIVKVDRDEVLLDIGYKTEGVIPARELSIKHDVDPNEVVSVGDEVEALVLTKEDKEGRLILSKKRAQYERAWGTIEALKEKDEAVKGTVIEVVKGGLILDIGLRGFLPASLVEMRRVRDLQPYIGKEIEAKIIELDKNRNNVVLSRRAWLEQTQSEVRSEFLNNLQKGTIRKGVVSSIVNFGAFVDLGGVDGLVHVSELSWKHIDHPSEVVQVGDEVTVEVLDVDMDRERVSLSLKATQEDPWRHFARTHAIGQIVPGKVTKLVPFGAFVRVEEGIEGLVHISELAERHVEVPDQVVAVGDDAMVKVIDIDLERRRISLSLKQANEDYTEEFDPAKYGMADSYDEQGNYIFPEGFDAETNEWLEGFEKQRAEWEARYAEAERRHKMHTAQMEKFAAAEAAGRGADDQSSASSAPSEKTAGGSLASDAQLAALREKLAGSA
measurementType: pKd
Answers are plain numbers, as −log10 of the molar value.

Supply pKd value. Item: O=C(O)c1cnccn1
6.88
